Molecular target: Neuromedin-K receptor (Homo sapiens)
Sequence (P29371 whole entry): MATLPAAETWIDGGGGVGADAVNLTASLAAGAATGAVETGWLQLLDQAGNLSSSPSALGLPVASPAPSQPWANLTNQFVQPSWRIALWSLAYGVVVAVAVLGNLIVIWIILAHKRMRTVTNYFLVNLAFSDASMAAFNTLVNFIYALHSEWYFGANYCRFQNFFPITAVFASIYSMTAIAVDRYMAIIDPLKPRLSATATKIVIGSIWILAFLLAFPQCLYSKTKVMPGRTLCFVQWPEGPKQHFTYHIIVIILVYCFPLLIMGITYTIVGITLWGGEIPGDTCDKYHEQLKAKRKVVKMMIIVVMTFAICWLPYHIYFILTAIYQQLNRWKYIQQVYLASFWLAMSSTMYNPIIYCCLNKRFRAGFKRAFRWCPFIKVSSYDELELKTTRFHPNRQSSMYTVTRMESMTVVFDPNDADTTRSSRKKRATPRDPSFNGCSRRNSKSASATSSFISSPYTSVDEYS
Assay: Displacement of ([125I]His3-MePhe7)-NKB from NK3 receptor (unknown origin) expressed in CHO cells by scintillation counter
Numbered stars: 1 amine (or outer) side, 2 acyl side, 3 side chain; on linkers, the order of the positions; unused ones are H or OH. Square brackets hold non-standard residues; d marks the D form. Peptide text beside a SMILES is read from it. * marks the point of attachment. X2 = NS(=O)(=O)N[C@@H](CC(=O)O)C(=O)*; NMeF = CN[C@@H](Cc1ccccc1)C(=O)O; NMeI = CC[C@H](C)[C@H](NC)C(=O)O; Aad = N[C@@H](CCCC(=O)O)C(=O)O; Oxalyl = O=C(C(=O)[*:2])[*:1]; Suc = O=C(CCC(=O)[*:2])[*:1]; NMeV = CN[C@H](C(=O)O)C(C)C; Oxamoyl = NC(=O)C(=O)*
Observation type: IC50 (nM)

>>> reported_measurement("CSCC[C@H](NC(=O)[C@H](CC(C)C)NC(=O)CNC(=O)[C@H](Cc1ccccc1)N(C)C(=O)[C@H](Cc1ccccc1)NC(=O)[C@H](CCC(=O)O)NC(=O)C(=O)O)C(N)=O")
0.43
>>> reported_measurement("CSCC[C@H](NC(=O)[C@H](CC(C)C)NC(=O)CNC(=O)[C@H](Cc1ccccc1)N(C)C(=O)[C@H](Cc1ccccc1)NC(=O)[C@H](CCCC(=O)O)NC(=O)C(=O)O)C(N)=O (Oxalyl-[Aad]F[NMeF]GLM-NH2)")
1.4
>>> reported_measurement("CSCC[C@H](NC(=O)[C@H](CC(C)C)NC(=O)CNC(=O)[C@H](C(C)C)N(C)C(=O)[C@H](Cc1ccccc1)NC(=O)[C@H](CC(=O)O)NC(=O)CCC(=O)O)C(N)=O (Suc-DF[NMeV]GLM-NH2)")
104
>>> reported_measurement("CC[C@H](C)[C@@H](C(=O)NCC(=O)N[C@@H](CC(C)C)C(=O)N[C@@H](CCSC)C(N)=O)N(C)C(=O)[C@H](Cc1ccccc1)NC(=O)[C@H](CC(=O)O)NC(=O)CCC(=O)O (Suc-DF[NMeI]GLM-NH2)")
91
>>> reported_measurement("CSCC[C@H](NC(=O)[C@H](CC(C)C)NC(=O)CNC(=O)[C@H](Cc1ccccc1)N(C)C(=O)[C@H](Cc1ccccc1)NC(=O)[C@H](CC(=O)O)NC(=O)C(N)=O)C(N)=O (Oxamoyl-DF[NMeF]GLM-NH2)")
7.9
>>> reported_measurement("CSCC[C@H](NC(=O)[C@H](CC(C)C)NC(=O)CNC(=O)[C@H](Cc1ccccc1)N(C)C(=O)[C@H](Cc1ccccc1)NC(=O)[C@H](CC(=O)O)NS(N)(=O)=O)C(N)=O (X2-F[NMeF]GLM-NH2)")
5.6

====

Biological target: Substance-P receptor (Homo sapiens, UniProt P25103)
Sequence (P25103 whole entry): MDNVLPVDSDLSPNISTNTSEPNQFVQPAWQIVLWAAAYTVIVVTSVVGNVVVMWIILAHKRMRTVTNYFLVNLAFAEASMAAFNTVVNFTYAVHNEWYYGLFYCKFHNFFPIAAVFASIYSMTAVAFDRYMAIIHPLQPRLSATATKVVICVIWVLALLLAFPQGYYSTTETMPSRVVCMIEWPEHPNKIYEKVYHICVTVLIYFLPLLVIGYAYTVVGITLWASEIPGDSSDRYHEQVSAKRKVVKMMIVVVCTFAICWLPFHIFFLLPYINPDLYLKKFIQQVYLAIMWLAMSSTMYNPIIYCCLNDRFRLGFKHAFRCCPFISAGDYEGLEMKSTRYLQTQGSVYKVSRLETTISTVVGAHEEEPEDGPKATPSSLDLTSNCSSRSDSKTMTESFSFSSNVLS
Test: Displacement of [125I]-BH-SP from NK1 receptor (unknown origin) expressed in CHO cells by scintillation counter
Numbered stars: 1 amine (or outer) side, 2 acyl side, 3 side chain; on linkers, the order of the positions; unused ones are H or OH. Square brackets hold non-standard residues; d marks the D form. Peptide text beside a SMILES is read from it. * marks the point of attachment. NMeF = CN[C@@H](Cc1ccccc1)C(=O)O; Aad = N[C@@H](CCCC(=O)O)C(=O)O; Suc = O=C(CCC(=O)[*:2])[*:1]; NMeV = CN[C@H](C(=O)O)C(C)C; CONHOH = O=C(NO)*
Observation type: IC50

>>> reported_measurement("CSCC[C@H](NC(=O)[C@H](CC(C)C)NC(=O)CNC(=O)[C@H](Cc1ccccc1)N(C)C(=O)[C@H](Cc1ccccc1)NC(=O)[C@H](CC(=O)O)NC(=O)NO)C(N)=O ({CONHOH}-DF[NMeF]GLM-NH2)")
"> 10 µM"
>>> reported_measurement("CSCC[C@H](NC(=O)[C@H](CC(C)C)NC(=O)CNC(=O)[C@H](Cc1ccccc1)N(C)C(=O)[C@H](Cc1ccccc1)NC(=O)[C@H](CC(=O)O)NC(=O)NN)C(N)=O")
"> 10 µM"
>>> reported_measurement("CSCC[C@H](NC(=O)[C@H](CC(C)C)NC(=O)CNC(=O)[C@H](Cc1ccccc1)N(C)C(=O)[C@H](Cc1ccccc1)NC(=O)[C@H](CC(=O)O)NC(=O)[C@@H](CC(=O)O)NC(C)=O)C(N)=O")
"> 10 µM"
>>> reported_measurement("CSCC[C@H](NC(=O)[C@H](CC(C)C)NC(=O)CNC(=O)[C@H](Cc1ccccc1)N(C)C(=O)[C@H](Cc1ccccc1)NC(=O)[C@@H](CC(=O)O)NC(=O)C(=O)O)C(N)=O")
"> 10 µM"
>>> reported_measurement("CSCC[C@H](NC(=O)[C@H](CC(C)C)NC(=O)CNC(=O)[C@H](Cc1ccccc1)N(C)C(=O)[C@H](Cc1ccccc1)NC(=O)[C@H](CCCC(=O)O)NC(=O)CCC(=O)O)C(N)=O (Suc-[Aad]F[NMeF]GLM-NH2)")
"> 10 µM"
>>> reported_measurement("CSCC[C@H](NC(=O)[C@H](CC(C)C)NC(=O)CNC(=O)[C@H](Cc1ccccc1)N(C)C(=O)[C@H](Cc1ccccc1)NC(=O)[C@H](CCC(=O)O)NC(=O)[C@@H](CC(=O)O)NC(C)=O)C(N)=O")
"> 10 µM"
>>> reported_measurement("CSCC[C@H](NC(=O)[C@H](CC(C)C)NC(=O)CNC(=O)[C@H](Cc1ccccc1)N(C)C(=O)[C@H](Cc1ccccc1)NC(=O)[C@H](CC(=O)O)NC(=O)[C@@H](N)CC(=O)O)C(N)=O (H-DDF[NMeF]GLM-NH2)")
"> 10 µM"
>>> reported_measurement("CSCC[C@H](NC(=O)[C@H](CC(C)C)NC(=O)CNC(=O)[C@H](Cc1ccccc1)N(C)C(=O)[C@H](Cc1ccccc1)NC(=O)[C@@H](CCC(=O)O)NC(=O)CCC(=O)O)C(N)=O")
"> 10 µM"
>>> reported_measurement("CSCC[C@H](NC(=O)[C@H](CC(C)C)NC(=O)CNC(=O)[C@H](C(C)C)N(C)C(=O)[C@H](Cc1ccccc1)NC(=O)[C@H](CC(=O)O)NC(=O)CCC(=O)O)C(N)=O (Suc-DF[NMeV]GLM-NH2)")
"> 10 µM"
>>> reported_measurement("CSCC[C@H](NC(=O)[C@H](CC(C)C)NC(=O)CNC(=O)[C@H](Cc1ccccc1)N(C)C(=O)[C@H](Cc1ccccc1)NC(=O)[C@@H](CC(=O)O)NC(=O)[C@H](CC(=O)O)NC(C)=O)C(N)=O")
"> 10 µM"

====

The following molecules are listed with their measured pIC50 values.
Target: Neuromedin-K receptor (Homo sapiens)
Experiment: Displacement of ([125I]His3-MePhe7)-NKB from NK3 receptor (unknown origin) expressed in CHO cells by scintillation counter
pIC50: −log10 of the molar value. Numbered stars: 1 amine (or outer) side, 2 acyl side, 3 side chain; on linkers, the order of the positions; unused ones are H or OH. Square brackets hold non-standard residues; d marks the D form. Peptide text beside a SMILES is read from it. NMeY = CN[C@@H](Cc1ccc(O)cc1)C(=O)O; Suc = O=C(CCC(=O)[*:2])[*:1]
Observation type: pIC50

>>> reported_measurement("CSCC[C@H](NC(=O)[C@H](CC(C)C)NC(=O)CNC(=O)[C@H](Cc1ccccc1)N(C)C(=O)[C@H](Cc1ccccc1)NC(=O)[C@@H](CC(=O)O)NC(=O)[C@@H](CC(=O)O)NC(C)=O)C(N)=O")
7.26
>>> reported_measurement("CSCC[C@H](NC(=O)[C@H](CC(C)C)NC(=O)CNC(=O)[C@H](Cc1ccccc1)N(C)C(=O)[C@H](Cc1ccccc1)NC(=O)[C@@H](CCC(=O)O)NC(=O)C(=O)O)C(N)=O")
9.29
>>> reported_measurement("CSCC[C@H](NC(=O)[C@H](CC(C)C)NC(=O)CNC(=O)[C@H](Cc1ccccc1)N(C)C(=O)[C@H](Cc1ccccc1)NC(=O)[C@@H](CCC(=O)O)NC(=O)CCC(=O)O)C(N)=O")
7.62
>>> reported_measurement("CSCC[C@H](NC(=O)[C@H](CC(C)C)NC(=O)CNC(=O)[C@H](Cc1ccc(O)cc1)N(C)C(=O)[C@H](Cc1ccccc1)NC(=O)[C@H](CC(=O)O)NC(=O)CCC(=O)O)C(N)=O (Suc-DF[NMeY]GLM-NH2)")
7.55

====

Target: Neuromedin-K receptor (Homo sapiens)
Experiment: Potency index, ratio of IC50 for […] to IC50 for test compound for binding affinity to NK3 receptor (unknown origin)
Observation type: Ratio IC50

>>> reported_measurement("CSCC[C@H](NC(=O)[C@H](CC(C)C)NC(=O)CNC(=O)[C@H](Cc1ccccc1)N(C)C(=O)[C@H](Cc1ccccc1)NC(=O)[C@H](CCC(=O)O)NC(=O)[C@@H](CC(=O)O)NC(C)=O)C(N)=O")
3
>>> reported_measurement("CSCC[C@H](NC(=O)[C@H](CC(C)C)NC(=O)CNC(=O)[C@H](Cc1ccccc1)N(C)C(=O)[C@H](Cc1ccccc1)NC(=O)[C@H](CCC(=O)O)NC(=O)[C@H](CC(=O)O)NC(C)=O)C(N)=O")
5
>>> reported_measurement("CSCC[C@H](NC(=O)[C@H](CC(C)C)NC(=O)CNC(=O)[C@H](Cc1ccccc1)N(C)C(=O)[C@H](Cc1ccccc1)NC(=O)[C@H](CC(=O)O)NC(=O)C(=O)O)C(N)=O")
10
>>> reported_measurement("CSCC[C@H](NC(=O)[C@H](CC(C)C)NC(=O)CNC(=O)[C@H](Cc1ccccc1)N(C)C(=O)[C@H](Cc1ccccc1)NC(=O)[C@@H](CC(=O)O)NC(=O)C(=O)O)C(N)=O")
10

The reported measurements were obtained from ChEMBL document CHEMBL3734731.
